The following binders are shown together with reported AUC values.
Biological target: T1, human CEACAM5 (carcinoembryonic antigen, CEA) on cells (human, UniProt P06731 35-685)
T1 construct: endogenous on MKN45 gastric adenocarcinoma cells; full-length cDNA stably transfected in the CHO-K1 clones; also called huCEACAM5; MKN45 cells
T1 sequence: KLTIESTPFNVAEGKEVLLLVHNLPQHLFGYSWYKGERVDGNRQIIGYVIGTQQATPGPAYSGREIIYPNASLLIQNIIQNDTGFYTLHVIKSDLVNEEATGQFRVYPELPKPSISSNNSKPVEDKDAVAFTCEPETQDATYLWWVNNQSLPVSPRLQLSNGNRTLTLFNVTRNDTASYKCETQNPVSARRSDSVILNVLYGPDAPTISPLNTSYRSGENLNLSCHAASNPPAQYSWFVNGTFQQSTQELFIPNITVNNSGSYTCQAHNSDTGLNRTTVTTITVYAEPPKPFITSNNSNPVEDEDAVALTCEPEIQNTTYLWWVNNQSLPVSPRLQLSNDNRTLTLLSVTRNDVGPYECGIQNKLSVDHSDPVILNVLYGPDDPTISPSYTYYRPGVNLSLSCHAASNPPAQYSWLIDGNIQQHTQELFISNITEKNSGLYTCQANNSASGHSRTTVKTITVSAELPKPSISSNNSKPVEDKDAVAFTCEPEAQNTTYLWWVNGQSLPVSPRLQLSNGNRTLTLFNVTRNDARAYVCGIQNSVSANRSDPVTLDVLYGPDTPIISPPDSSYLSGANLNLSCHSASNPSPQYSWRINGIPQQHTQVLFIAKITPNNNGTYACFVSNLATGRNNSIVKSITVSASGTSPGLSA
Assay: flow cytometry, MKN45 cells
Parameters: unit not given beside the values
Keep it simple and answer with nothing but the number.

P1AE3113 (antibody, IgG1, V domains shown, huIgG1 P329G LALA; also called MFE-H24 / MFE-L26) VH: QVQLVQSGAEVKKPGASVKVSCKASGFNIKDSYMHWVRQAPGQGLEWMGWIDPENGDTEYAPKFQGRVTMTTDTSISTAYMELSRLRSDDTAVYYCNEGTPTGPYYFDYWGQGTLVTVSS VL: EIQMTQSPSSLSASVGDRVTITCRASQSISSYMHWYQQKPGKAPKLLIYSTSNLASGVPSRFSGSGSGTDFTLTISSLQPEDFATYYCQQRSSYPLTFGGGTKLEIK | 757
P1AE3123 (antibody, IgG1, V domains shown, huIgG1 P329G LALA; also called MFE-H26 / MFE-L24) VH: QVQLVQSGAEVKKPGASVKVSCKASGFNIKDSYMHWVRQAPGQGLEWMGWIDPENGGTNYAQKFQGRVTMTTDTSISTAYMELSRLRSDDTAVYYCNEGTPTGPYYFDYWGQGTLVTVSS VL: DIQMTQSPSSLSASVGDRVTITCRASSSVSYMHWYQQKPGKAPKLLIYSTSNLASGVPSRFSGSGSGTDFTLTISSLQPEDFATYYCQQRSSYPLTFGGGTKLEIK | 1090

Proceeding to the next binder to report its AUC.
INPUT: Which value of AUC has been reported for P1AE3097 (antibody, IgG1, V domains shown, huIgG1 P329G LALA; also called MFE-H28 / MFE-L28; huMFE23-L28-H28) VH: QVQLVQSGAEVKKPGASVKVSCKASGFNIKDSYMHWVRQAPGQGLEWMGWIDPENGDTEYAPKFQGRVTMTRDTSISTAYMELSRLRSDDTAVYYCNEGTPTGPYYFDYWGQGTLVTVSS VL: EIQMTQSPSSLSASVGDRVTITCRASSSVPYMHWLQQKPGKAPKLLIYSTSNLASGVPSRFSGSGSGTDFTLTISSVQPEDFATYYCQQRSSYPLTFGGGTKLEIK in the records?
OUTPUT: 98700

# credit: patent US20220267464A1
